All values here come from patent US3985875A.

- Tested on: renal hypertensive rats
- Assay remarks: Antihypertensive activity in rats, p.o. (Table 4)
- Type: in vivo, rat
- Protocol conditions: 100 mg/kg/day p.o.; 2nd day after withdrawal
For each entry below, report its Changes of blood pressure after drug withdrawal value.
Could you give me the number in mmHg? Just the number is fine.

Memo: CC(Oc1ccc(Oc2ccc(Cl)cc2)cc1)C(=O)NCCOP(=O)(O)OCCN (stereo not shown) , reported Changes of blood pressure after drug withdrawal: -32

Memo: `NCCOP(=O)(O)OCCCNC(=O)COc1ccc(Oc2ccc(Cl)cc2)cc1` , reported Changes of blood pressure after drug withdrawal: -11

Memo: CC(Oc1ccc(Oc2ccc(Cl)cc2)cc1)C(=O)NCCCOP(=O)(O)OCCN (stereo not shown) , reported Changes of blood pressure after drug withdrawal: -12

Memo: `NCCOP(=O)(O)OCCNC(=O)COc1ccc(Oc2ccc(Cl)cc2)cc1` , reported Changes of blood pressure after drug withdrawal: -34

----------
- Study target: High renin plasma (Canis lupus familiaris)
- Construct: High renin plasma prepared by constriction of the renal artery of a dog anesthetized with Nembutal; from tissue; host or cells: plasma of a dog with constricted renal artery
- Sequence (Q6DYE7 66-403): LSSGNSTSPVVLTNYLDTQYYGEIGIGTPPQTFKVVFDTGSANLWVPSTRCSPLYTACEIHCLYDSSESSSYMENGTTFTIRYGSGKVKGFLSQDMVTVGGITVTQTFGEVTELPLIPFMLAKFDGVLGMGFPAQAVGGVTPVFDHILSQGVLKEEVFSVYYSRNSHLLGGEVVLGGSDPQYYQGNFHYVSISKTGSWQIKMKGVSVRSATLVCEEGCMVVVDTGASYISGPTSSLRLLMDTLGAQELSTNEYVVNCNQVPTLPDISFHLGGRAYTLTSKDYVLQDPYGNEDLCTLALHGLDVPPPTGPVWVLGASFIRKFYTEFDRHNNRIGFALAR
- Assay remarks: Renin-inhibitory activity, Method II (high renin plasma of dog, inhibition of Angiotensin I formation)
- Assay type: biochemical
- Protocol conditions: Table 2; 37°C, 4 hours, 1.25 mg/ml; read-out: Rate of inhibiting the formation of Angiotensin I determined by Method II
Measured property: inhibition at 1250 µg/mL (%)
Could you give me the number in %? Just the number is fine.

Result for `CCC=CCC=CCC=CCCCCCCCC(=O)NCCOP(=O)(O)OCCN` , tested on High renin plasma (Canis lupus familiaris), inhibition at 1250 µg/mL: 50

Result for `CCCCCC=CCC=CCCCCCCCC(=O)NCCOP(=O)(O)OCCN` , tested on High renin plasma (Canis lupus familiaris), inhibition at 1250 µg/mL: 21

Result for CC(Oc1ccc(Oc2ccc(Cl)cc2)cc1)C(=O)NCCOP(=O)(O)OCCN (centres unmarked) , tested on High renin plasma (Canis lupus familiaris), inhibition at 1250 µg/mL: 55

Result for `CCC=CCC=CCC=CCCCCCCCC(=O)NCCCOP(=O)(O)OCCN` , tested on High renin plasma (Canis lupus familiaris), inhibition at 1250 µg/mL: 59

Result for `CCCCCC=CCC=CCCCCCCCC(=O)NCCCOP(=O)(O)OCCN` , tested on High renin plasma (Canis lupus familiaris), inhibition at 1250 µg/mL: 24

----------
- Tested on: renal hypertensive rats
- Assay remarks: Antihypertensive activity in rats, p.o. (Table 4)
- Type: in vivo, rat
- Protocol conditions: 100 mg/kg/day p.o.; 3rd day after withdrawal
Measured property: Changes of blood pressure after drug withdrawal
I'd appreciate it if you included the unit after the number.

Memo: `NCCOP(=O)(O)OCCCNC(=O)COc1ccc(Oc2ccc(Cl)cc2)cc1` , reported Changes of blood pressure after drug withdrawal: -5 mmHg

Memo: `NCCOP(=O)(O)OCCNC(=O)COc1ccc(Oc2ccc(Cl)cc2)cc1` , reported Changes of blood pressure after drug withdrawal: -26 mmHg

Memo: CC(Oc1ccc(Oc2ccc(Cl)cc2)cc1)C(=O)NCCCOP(=O)(O)OCCN (stereo not shown) , reported Changes of blood pressure after drug withdrawal: -5 mmHg

Memo: CC(Oc1ccc(Oc2ccc(Cl)cc2)cc1)C(=O)NCCOP(=O)(O)OCCN (stereo not shown) , reported Changes of blood pressure after drug withdrawal: -18 mmHg

----------
- System: renal hypertensive rats
- Assay remarks: Antihypertensive activity in rats, p.o. (Table 4)
- Assay type: in vivo, rat
- Protocol conditions: 100 mg/kg/day p.o.; 1st day, 5 hours after administration
For each entry below, report its Changes of blood pressure value.

Result for CC(Oc1ccc(Oc2ccc(Cl)cc2)cc1)C(=O)NCCCOP(=O)(O)OCCN (stereo not drawn) , tested on renal hypertensive rats, Changes of blood pressure: +4 mmHg

Result for CCCCCC=CCC=CCC=CCC=CCCCC(=O)OCC(COP(=O)(O)OCCN)OC(=O)CCCCCCCCCCCCCCCCC (racemic) [(a), reference compound] , tested on renal hypertensive rats, Changes of blood pressure: +2 mmHg

Result for `NCCOP(=O)(O)OCCNC(=O)COc1ccc(Oc2ccc(Cl)cc2)cc1` , tested on renal hypertensive rats, Changes of blood pressure: +1 mmHg
